- system.under.test: Cytochrome P450 2D6 (Homo sapiens) (UniProt P10635)
- Sequence (P10635 whole entry, looked up): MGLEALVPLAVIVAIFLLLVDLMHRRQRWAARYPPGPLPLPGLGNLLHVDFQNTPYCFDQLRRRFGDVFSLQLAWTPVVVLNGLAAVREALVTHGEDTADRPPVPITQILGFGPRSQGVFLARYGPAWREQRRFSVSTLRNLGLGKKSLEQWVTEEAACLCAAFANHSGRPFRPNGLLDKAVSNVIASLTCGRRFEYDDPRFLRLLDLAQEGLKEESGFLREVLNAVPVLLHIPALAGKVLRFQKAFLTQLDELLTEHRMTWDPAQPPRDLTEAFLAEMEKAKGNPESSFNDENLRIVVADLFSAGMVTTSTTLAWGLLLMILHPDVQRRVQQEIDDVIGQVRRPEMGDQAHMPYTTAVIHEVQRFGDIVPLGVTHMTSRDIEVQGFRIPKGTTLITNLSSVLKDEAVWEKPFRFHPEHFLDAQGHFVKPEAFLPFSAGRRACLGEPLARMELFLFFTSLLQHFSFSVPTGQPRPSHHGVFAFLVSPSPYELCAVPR
- assay.info: Cytochrome P450 family 2 subfamily D member 6 (CYP2D6) small molecule antagonists: luciferase biochemical (cell-free) qHTS assay (AID 1645840); note: potency is the fitted concentration of half-maximal effect; nearly all actives have a fitted effect of over 55% in size
- settings: P450-Glo CYP2D6 enzyme, luciferin luminescence, 1 h; series mostly up to 57.4 µM
Results filed as inconclusive are left out. Active and inactive are the calls of the source. Calls come from the whole dose curve; as a rule, active = well fitted inhibition curve with a large enough effect in the repeat runs; inconclusive = weak or mixed curves; inactive = flat fitted curve, though single readings scatter.
Catalogue of molecules with associated Potency

The examples below pair each entry with its known result.
molecule: COc1ccc(CCO[C@@H]2CCCC[C@H]2N2CC[C@@H](O)C2)cc1OC
reported: 10.7 µM (active)

molecule: CNC(=O)c1ccccc1Nc1nc(Nc2ccc3c(c2OC)CCCC(N2CCN(CCO)CC2)C3)ncc1Cl (stereo not given)
reported: 15.1 µM (active)

Give the value of Potency reported for the following: "CC(C)(C)NCCCNC(=O)c1cccc(Br)c1"
0.849 µM (active)

Tell us which Potency value is on record for "O=C(Nc1ccc(-c2ccncc2)cc1)N[C@H](CO)c1ccccc1"
10.7 µM (active)

Output Potency of "Cc1ccccc1-n1c([C@H](C)Nc2nc(N)nc3nc[nH]c23)nc2cccc(C)c2c1=O"
16.9 µM (active)

* * *

- System: Hek293T
- assay.info: Primary qHTS to identify gynecologic anti-cancer compounds using libraries of approved drugs and bioactive compounds (AID 1345084); note: % is set by controls: 0 for no effect and ±100 for the full control effect; nearly all actives have a fitted effect of over 55% in size
- settings: Gynecologic cancer cell panel viability, ATPlite luminescence, 48 h, control line for the selectivity index; series mostly up to 57.5 µM
Records with an inconclusive call do not appear. Activity calls are given as the source filed them. Calls follow the shape of the dose curve; as a rule, active = well fitted cell-killing curve with a large enough effect; inconclusive = small, poorly fitted or top-dose-only effect, or effect the other way; inactive = flat fitted curve, though single readings scatter.
Pick from TRUE for active, FALSE for inactive when you respond.

Take a look at these entries with their results.
compound: C=C1CCC2C(C(C)(C)O)CCC2(C)CC(O)C(=C)CCC1O (centres undefined)
qualitative.label: FALSE

compound: CC12CCC3c4ccc(OC5OC(C(=O)O)C(O)C(O)C5O)cc4CCC3C1CCC2O (centres undefined)
qualitative.label: FALSE

compound: C=C1CC[C@H]2[C@@](C)(CCC(O)[C@@]2(C)CO)[C@@H]1CCC1=CCOC1=O (some centres undefined)
qualitative.label: FALSE

compound: CSc1ccc(C(=O)N[C@@H]2CCCC[C@@H]2NC(=O)CNC(=O)c2cc(C(F)(F)F)ccc2NC(=O)NC(C)C)cc1
qualitative.label: FALSE

compound: O=C(CCc1nnc2n(Cc3ccc(Cl)cc3)c(=O)c3ccccc3n12)NCCC1=CCCCC1
qualitative.label: FALSE

compound: CC1(C)CCCC2(C)C1CC(=O)C13CC(CCC12)C(O)(CO)C3 (centres undefined)
qualitative.label: FALSE

compound: OC[C@H]1O[C@@H](O[C@H]2[C@H](OCc3ccccc3)O[C@H](CO[C@@H]3OC[C@@H](O)[C@H](O)[C@H]3O)[C@@H](O)[C@@H]2O)[C@H](O)[C@@H](O)[C@@H]1O
qualitative.label: FALSE

compound: CCn1cc(NC(=S)Nc2cc(Cl)ccc2OC)c(C(N)=O)n1
qualitative.label: FALSE

So what was the verdict on "C[C@@H]1C(=O)OC[C@H]2C(C(=O)O)=C[C@@H]3CC(C)(C)C[C@]312" in this test?
FALSE

* * *

- assay.info: Primary fluorescence-based thiol-reactive (MSTI) qHTS assay for identification of artifact compounds. (AID 1845221);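 note: thiol-reactive compounds lower the probe fluorescence signal; nearly all actives have a fitted effect of over 65% in size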
- settings: MSTI thiol-reactivity probe, 1 h; series mostly up to 53.8 µM
Records with an inconclusive call do not appear. Active and inactive are the calls of the source. Calls follow the shape of the dose curve; as a rule, active = well fitted inhibition curve with a large enough effect; inconclusive = small, poorly fitted or top-dose-only effect; inactive = no such curve, though single readings can be large or run the other way.
measured.quantity: activity change, negative = thiol reactive

Examples from the recorded data:
compound: CN(C)C(=O)NC1CCC(CCN2CCN(c3cccc(Cl)c3Cl)CC2)CC1 (stereo not drawn)
reported: 20.5% [at 11.5 µM] (inactive)
--
compound: COC1CC(OC2CCC3(C)C(=CCC4C3C(OC(C)=O)C(OC(=O)/C=C/c3ccccc3)C3(C)C(C(C)O)CCC43O)C2)OC(C)C1OC1CC(OC)C(OC2OC(C)C(OC3OC(CO)C(O)C(O)C3O)C(OC)C2O)C(C)O1 (stereo not drawn)
reported: 40.8% [at 11.5 µM] (inactive)

Next, consider the following compound.
Indicate the recorded activity change, negative = thiol reactive value for this compound: C[C@@H]1CC[C@]2(C(=O)O[C@@H]3O[C@H](CO)[C@@H](O)[C@H](O)[C@H]3O)CC[C@]3(C)C(=CCC4[C@@]5(C)C[C@@H](O)[C@H](O)[C@@](C)(C(=O)O[C@H]6[C@H](O)C[C@@]7(C)C(CC[C@]8(C)C7CC=C7[C@H]9[C@](C(=O)O[C@@H]%10O[C@H](CO)[C@@H](O)[C@H](O)[C@H]%10O)(CC[C@@H](C)[C@@]9(C)O)CC[C@]78C)[C@@]6(CO)C(=O)O)C5CC[C@]43C)[C@@H]2[C@]1(C)O (stereo partly drawn)
-3.19% [at 11.5 µM] (inactive)
